Overview of reported Half-Life across a group of sequences:
Target: HLA-A*0201 on T2 cells (Homo sapiens, UniProt P04439, D140Y/D185E/D98H/E176V/E277Q/G131W/G231S/I119V/I121R/I166T/I218V/L300P/L318F/N151K/N90K/P208A/P217A/Q86G/Q94H/R138H/R169H/T345S)
Construct: T2 cells were pulsed with indicated peptides for 8–12 hours, washed, and then stained for surface HLA-A*0201 expression; host or cells: T2 cells
Assay: T2 dissociation (stability) assay
Type: cell-based
Settings: peptide:HLA-A*0201 dissociation; T2 cells pulsed 8–12 hours, washed; MFI normalized to time 0; linear regression; three independent experiments in triplicate
Method: T2 binding assays were performed as described previously ([23]). […] Surface expression of HLA-A*0201 in T2 cells was determined by staining with an anti-HLA-A2 mAb (BB7.2, BD Biosciences). The median fluorescence intensity (MFI) was measured using a FACSCando II (BD Biosciences). The peptide half-life was calculated by linear regression using GraphPad Prism software. FIGURE 2 Kinetics of peptide: HLA-A*0201 dissociation. […]

sequenceInput: PLSDLLLEM [Y537S, ESR1-derived nonameric peptide with Y537S mutation]
unitTag: h
Half-Life: 6.2

sequenceInput: PLYDLLLEM [Wildtype-2, wild-type ESR1-derived nonameric peptide associated with Y537S and D538G]
unitTag: h
Half-Life: 5.9

sequenceInput: LLECAWLEI [Wildtype-1, wild-type ESR1-derived nonameric peptide associated with E380Q]
unitTag: h
Half-Life: 5.4

sequenceInput: PLYGLLLEM [D538G, ESR1-derived nonameric peptide with D538G mutation]
unitTag: h
Half-Life: 6.0

sequenceInput: LLQCAWLEI [E380Q, ESR1-derived nonameric peptide with E380Q mutation]
unitTag: h
Half-Life: 7.2
